- systemName: T1, human recombinant CD117 (c-Kit) from Sino Biological (Catalog No. 11996-H08H) (human, UniProt P10721 26-524)
- T1 construct: also called soluble antigen
- T1 sequence (P10721 26-524 limits assumed): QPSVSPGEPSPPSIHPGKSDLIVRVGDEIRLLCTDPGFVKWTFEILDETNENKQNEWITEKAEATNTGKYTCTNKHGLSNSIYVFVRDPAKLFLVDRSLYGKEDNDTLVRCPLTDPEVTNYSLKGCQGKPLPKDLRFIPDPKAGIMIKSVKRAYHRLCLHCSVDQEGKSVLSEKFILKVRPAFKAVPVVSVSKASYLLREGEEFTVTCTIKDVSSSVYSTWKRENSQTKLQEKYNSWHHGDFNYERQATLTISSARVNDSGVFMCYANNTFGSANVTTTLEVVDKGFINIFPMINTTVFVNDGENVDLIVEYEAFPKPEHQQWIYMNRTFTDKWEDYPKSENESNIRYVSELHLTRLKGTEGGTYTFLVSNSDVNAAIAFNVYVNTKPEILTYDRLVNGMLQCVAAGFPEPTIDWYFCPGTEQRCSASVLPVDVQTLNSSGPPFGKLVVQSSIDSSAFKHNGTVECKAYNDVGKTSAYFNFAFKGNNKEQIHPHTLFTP
- assayName: BLI Octet, set-up as in Example 2
Items are presented alongside their recorded pKd.
In plain terms, pKd is the concentration in mol/L turned into minus its base-10 logarithm.

binder	pKd
Allalinhorn (antibody, V domains shown, IgG; also called VH1/VL1.19; Allaninhorn) VH: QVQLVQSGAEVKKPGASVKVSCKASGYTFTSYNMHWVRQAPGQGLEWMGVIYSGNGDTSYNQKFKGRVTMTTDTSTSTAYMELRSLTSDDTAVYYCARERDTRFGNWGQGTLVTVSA VL: EIVLTQSPSSLSASVGDRVTITCRASESVDIYGESFMHWYQQKPGKAPKLLIYLASNLESGVPSRFSGSGSGTDFTLTISSLQPEDFATYYCQQNKEEPYTFGQGTKLEIKR	9.35

Request the reported pKd associated with Weissmies (antibody, V domains shown, IgG; also called VH1.2/VL1.16) VH: QVQLVQSGAEVKKPGASVKVSCKASGYTFTSYNMHWVRQAPGQGLEWMGVIYSGSGDTSYNQKFKGRVTMTTDTSTSTAYMELRSLTSDDTAVYYCARERDTRFGNWGQGTLVTVSA VL: EIVLTQSPSSLSASVGDRVTITCRASESVDIYGYSFMHWYQQKPGKAPKLLIYLASNLESGVPSRFSGSGSGTDFTLTISSLQPEDFATYYCQQNNEEPYTFGQGTKLEIKR 9.43
